ASSAY_INFO: Ivosidenib plasma PK after multiple oral doses (dose escalation)
Assay type: in vivo, human
RECORDED_CONDITIONS: human, plasma, oral, 100 mg, non-glioma solid tumors, 100 mg BID, cycle 2 day 1; geometric mean; read-out: AUC0-tau
MEASURED_METRIC: AUC (ng·h/mL)

compound="N#Cc1ccnc(N2C(=O)CC[C@H]2C(=O)N(c2cncc(F)c2)[C@H](C(=O)NC2CC(F)(F)C2)c2ccccc2Cl)c1 [ivosidenib]" measured_result=33600

====

ASSAY_INFO: Ivosidenib plasma PK after multiple oral doses (dose escalation)
Type: in vivo, human
RECORDED_CONDITIONS: human, plasma, oral, 600 mg, glioma, 600 mg QD, cycle 2 day 1; geometric mean
MEASURED_METRIC: Cmax (ng/mL)

compound="N#Cc1ccnc(N2C(=O)CC[C@H]2C(=O)N(c2cncc(F)c2)[C@H](C(=O)NC2CC(F)(F)C2)c2ccccc2Cl)c1 [ivosidenib]" measured_metric=Cmax measured_result=3800
